tested_on: T1, G9a and GLP (Homo sapiens, UniProt Q96KQ7+Q9H9B1)
T1 sequence (Q96KQ7 2-1210 limits assumed): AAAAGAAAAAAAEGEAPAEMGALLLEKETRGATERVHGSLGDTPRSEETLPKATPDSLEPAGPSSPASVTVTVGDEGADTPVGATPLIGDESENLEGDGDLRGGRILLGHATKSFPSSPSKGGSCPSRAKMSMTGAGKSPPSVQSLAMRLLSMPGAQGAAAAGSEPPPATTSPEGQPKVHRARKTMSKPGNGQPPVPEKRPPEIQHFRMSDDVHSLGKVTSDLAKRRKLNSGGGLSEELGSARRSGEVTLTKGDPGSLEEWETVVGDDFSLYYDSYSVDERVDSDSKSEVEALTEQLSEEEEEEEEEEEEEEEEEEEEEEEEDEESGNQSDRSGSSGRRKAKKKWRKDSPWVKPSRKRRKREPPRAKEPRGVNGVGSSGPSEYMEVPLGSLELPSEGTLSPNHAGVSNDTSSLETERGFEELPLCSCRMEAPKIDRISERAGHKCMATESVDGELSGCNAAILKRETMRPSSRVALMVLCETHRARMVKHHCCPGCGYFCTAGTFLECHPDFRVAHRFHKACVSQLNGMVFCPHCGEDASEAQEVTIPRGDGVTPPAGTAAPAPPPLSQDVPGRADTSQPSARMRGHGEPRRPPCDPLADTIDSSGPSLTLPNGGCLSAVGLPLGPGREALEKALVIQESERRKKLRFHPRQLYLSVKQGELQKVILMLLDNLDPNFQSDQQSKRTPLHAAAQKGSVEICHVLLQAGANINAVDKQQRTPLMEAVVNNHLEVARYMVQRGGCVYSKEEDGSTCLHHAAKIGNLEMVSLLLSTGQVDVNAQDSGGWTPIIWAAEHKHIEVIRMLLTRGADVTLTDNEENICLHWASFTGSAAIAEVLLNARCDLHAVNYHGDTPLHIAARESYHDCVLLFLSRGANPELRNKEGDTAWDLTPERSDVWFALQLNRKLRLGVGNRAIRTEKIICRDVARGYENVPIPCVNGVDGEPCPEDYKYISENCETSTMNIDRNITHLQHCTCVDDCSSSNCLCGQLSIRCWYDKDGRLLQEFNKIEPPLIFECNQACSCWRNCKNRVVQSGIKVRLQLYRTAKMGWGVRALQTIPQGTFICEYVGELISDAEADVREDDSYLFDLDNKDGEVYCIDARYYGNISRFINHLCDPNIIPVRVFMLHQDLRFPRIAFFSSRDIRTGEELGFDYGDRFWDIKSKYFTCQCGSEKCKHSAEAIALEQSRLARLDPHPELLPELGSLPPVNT
T1 sequence (Q9H9B1 2-1298 limits assumed): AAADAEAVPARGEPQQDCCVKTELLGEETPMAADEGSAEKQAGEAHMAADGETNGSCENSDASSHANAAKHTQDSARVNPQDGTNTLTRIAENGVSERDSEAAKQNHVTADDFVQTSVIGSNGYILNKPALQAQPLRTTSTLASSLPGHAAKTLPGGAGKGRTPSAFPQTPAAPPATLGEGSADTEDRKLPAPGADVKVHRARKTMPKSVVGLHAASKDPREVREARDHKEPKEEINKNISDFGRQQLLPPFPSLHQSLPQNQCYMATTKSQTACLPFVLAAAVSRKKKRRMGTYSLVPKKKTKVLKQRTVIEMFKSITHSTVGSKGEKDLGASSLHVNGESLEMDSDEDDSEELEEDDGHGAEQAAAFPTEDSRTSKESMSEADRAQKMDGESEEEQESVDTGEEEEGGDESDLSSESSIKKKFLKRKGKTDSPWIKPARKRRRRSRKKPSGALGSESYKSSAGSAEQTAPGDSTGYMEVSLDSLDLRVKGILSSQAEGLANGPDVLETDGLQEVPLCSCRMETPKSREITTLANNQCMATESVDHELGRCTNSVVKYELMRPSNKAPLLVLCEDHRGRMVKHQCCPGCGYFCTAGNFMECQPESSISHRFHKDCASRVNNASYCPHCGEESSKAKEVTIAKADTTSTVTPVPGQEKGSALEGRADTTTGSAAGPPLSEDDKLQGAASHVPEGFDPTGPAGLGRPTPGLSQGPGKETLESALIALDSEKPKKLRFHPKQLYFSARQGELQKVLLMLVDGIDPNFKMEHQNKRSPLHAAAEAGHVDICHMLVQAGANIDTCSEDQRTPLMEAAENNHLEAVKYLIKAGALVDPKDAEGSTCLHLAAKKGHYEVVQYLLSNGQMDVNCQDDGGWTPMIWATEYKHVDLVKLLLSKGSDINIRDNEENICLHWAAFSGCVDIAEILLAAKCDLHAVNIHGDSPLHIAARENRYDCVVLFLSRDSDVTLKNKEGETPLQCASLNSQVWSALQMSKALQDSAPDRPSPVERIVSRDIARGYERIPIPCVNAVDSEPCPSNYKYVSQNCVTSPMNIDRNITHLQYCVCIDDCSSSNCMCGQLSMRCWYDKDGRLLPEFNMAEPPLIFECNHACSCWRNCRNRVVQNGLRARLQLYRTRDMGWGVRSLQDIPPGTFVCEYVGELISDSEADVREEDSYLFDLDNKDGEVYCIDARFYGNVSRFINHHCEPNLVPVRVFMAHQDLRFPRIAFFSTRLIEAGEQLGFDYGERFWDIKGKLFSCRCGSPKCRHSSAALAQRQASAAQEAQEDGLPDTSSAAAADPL
experiment: Triple SILAC pull-down after UNC0638 treatment of 293T cells, DMSO/UNC0638 ratio of protein captured by 3×MBT;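 also: mass spectrometry (Q-Exactive) SILAC quantitation, DMSO/UNC0638 ratio computed after subtracting 3×MBTD355N mutant pull-down background, only proteins with at least twofold 3×MBT over mutant signal considered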
Format: cell-based
Parameters: cells were treated for 24 hours with UNC0638 at 2.5 μM or DMSO vehicle control; endogenous in cells; host or cells: HEK 293T
condition_notes: SILAC ratio DMSO/UNC0638 of protein pulled down with 3xMBT; UNC0638 in heavy SILAC media
Relative to UNC0638 UNC Heavy reference
Dear colleague, please return just the value in log base 2, with no unit written.

>>> observed_measurement("PRDX2 (protein, UniProt P32119 2-198, looked up) Peroxiredoxin-2: ASGNARIGKPAPDFKATAVVDGAFKEVKLSDYKGKYVVLFFYPLDFTFVCPTEIIAFSNRAEDFRKLGCEVLGVSVDSQFTHLAWINTPRKEGGLGPLNIPLLADVTRRLSEDYGVLKTDEGIAYRGLFIIDGKGVLRQITVNDLPVGRSVDEALRLVQAFQYTDEHGEVCPAGWKPGSDTIKPNVDDSKEYFSKHN")
0.43

Okay, next one:
Item: PDCD2L (protein, UniProt Q9BRP1 2-358, looked up) Programmed cell death protein …: AAVLKPVLLGLRDAPVHGSPTGPGAWTASKLGGIPDALPTVAAPRPVCQRCGQPLALVVQVYCPLEGSPFHRLLHVFACACPGCSTGGARSWKVFRSQCLQVPEREAQDAQKQGNSLAAEDWCEGADDWGSDTEEGPSPQFTLDFGNDASSAKDVDWTARLQDLRLQDAVLGAAHPVPPGLPLFLPYYICVADEDDYRDFVNLDHAHSLLRDYQQREGIAMDQLLSQSLPNDGDEKYEKTIIKSGDQTFYKFMKRIAACQEQILRYSWSGEPLFLTCPTSEVTELPACSQCGGQRIFEFQLMPALVSMLKSANLGLSVEFGTILVYTCEKSCWPPNHQTPMEEFCIIQEDPDELLFK | Relative to UNC0638 UNC Heavy: 0.22

All figures here come from patent US20140274782A1.
